Experiment: Pharmacokinetic analysis, single oral dose in rat
Settings: in vivo, single oral dose of 20 mg/kg
QUANTITY NAME: Cmax
Don't forget the unit after the value.

What Cmax value was documented for this molecule, COc1ccc(-c2nnn(C3CC4C(=O)NC5(C(=O)NS(=O)(=O)C6CC6)CC5C=CCCCCCC(NC(=O)OC5CCCC5)C(=O)N4C3)n2)cc1 (stereo not shown) [Example 36] ?
16100 ng/mL

* * *

Test: Pharmacokinetic analysis, single oral dose in rat
Details: in vivo, single oral dose of 20 mg/kg
QUANTITY NAME: bioavailability (%)
Write the value in % as a bare number.

What bioavailability value was documented for this molecule, COc1ccc(-c2nnn(C3CC4C(=O)NC5(C(=O)NS(=O)(=O)C6CC6)CC5C=CCCCCCC(NC(=O)OC5CCCC5)C(=O)N4C3)n2)cc1 (stereo not shown) ?
76

* * *

Biological target: full-length NS3 HCV protease 1b tethered with NS4A cofactor (Hepatitis C virus genotype 1b)
Sequence (Q9WMX2 1027-1657, other chains not shown): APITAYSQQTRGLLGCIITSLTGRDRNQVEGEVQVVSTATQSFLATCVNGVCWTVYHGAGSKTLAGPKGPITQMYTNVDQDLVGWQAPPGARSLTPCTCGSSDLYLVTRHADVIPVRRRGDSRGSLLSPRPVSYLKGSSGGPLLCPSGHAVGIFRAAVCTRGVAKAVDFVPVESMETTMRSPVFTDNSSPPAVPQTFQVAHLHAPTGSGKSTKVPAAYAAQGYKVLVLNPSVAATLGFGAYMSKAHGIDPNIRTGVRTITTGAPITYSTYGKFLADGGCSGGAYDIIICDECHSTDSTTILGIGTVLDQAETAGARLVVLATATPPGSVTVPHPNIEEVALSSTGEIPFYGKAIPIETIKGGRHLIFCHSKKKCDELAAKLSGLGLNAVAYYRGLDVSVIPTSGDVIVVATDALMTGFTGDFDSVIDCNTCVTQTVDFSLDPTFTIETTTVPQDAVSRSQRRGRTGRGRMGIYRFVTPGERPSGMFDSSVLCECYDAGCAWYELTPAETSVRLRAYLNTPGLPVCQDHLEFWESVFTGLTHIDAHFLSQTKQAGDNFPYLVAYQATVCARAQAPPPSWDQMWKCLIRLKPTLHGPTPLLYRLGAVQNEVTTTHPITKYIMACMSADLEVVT
QUANTITY NAME: pIC50
Scale: negative log10 of molar concentration, which is what pIC50 denotes.

What pIC50 value was documented for this compound, O=C(NC1CCCCCC=CC2CC2(C(=O)NS(=O)(=O)C2CC2)NC(=O)C2CC(n3nnc(-c4cccc5ccccc45)n3)CN2C1=O)OC1CCCC1 (stereo not drawn) ?
9.70

What pIC50 value was documented for this compound, COc1ccc(-c2nnn(C3CC4C(=O)NC5(C(=O)NS(=O)(=O)C6CC6)CC5C=CCCCCCC(NC(=O)OC5CCCC5)C(=O)N4C3)n2)cc1 (stereo not drawn) ?
10.00

What pIC50 value was documented for this compound, COc1ccc(-n2nnc(C3CC4C(=O)NC5(C(=O)NS(=O)(=O)C6CC6)CC5C=CCCCCCC(NC(=O)OC5CCCC5)C(=O)N4C3)n2)cc1 (stereo not drawn) ?
9.40

Sourced from patent US8785377B2
